study target: hCA IX (Homo sapiens)
assay details: biochemical
condition: IC50 CA IX (printed in μM), stopped-flow CO2-hydrase assay; mean ± SD
assay endpoint: IC50 (µM)
# value in µM; strip the unit string

Request: What reported IC50 corresponds to "C=C[C@@]1(C)C=C2CC[C@@H]3[C@](C)(CCC[C@@]3(C)C(=O)O)[C@H]2CC1" on hCA IX (Homo sapiens)?
Result: 0.341

###

The reader will find IC50 measurements below, all made with hCA II (Homo sapiens).
# value in nM; strip the unit string

Request: Fill in the blank: the reported IC50 of "CC(C)C1=CC[C@H]2C(=C1)CC[C@@H]1[C@]2(C)CCC[C@@]1(C)C(=O)O" is ____.
Result: 680

Request: Fill in the blank: the reported IC50 of "CC(C)C1=CC2=C(CC1)[C@@]1(C)CCC[C@@](C)(C(=O)O)[C@@H]1CC2" is ____.
Result: 1450

Request: Fill in the blank: the reported IC50 of "C=C[C@@]1(C)C=C2CC[C@@H]3[C@](C)(CCC[C@@]3(C)C(=O)O)[C@H]2CC1" is ____.
Result: 1620

###

study target: UniProt Q16790
assay details: biochemical
condition: IC50 hCA IX, stopped-flow CO2-hydrase assay, pH 7.4, 25 °C; mean ± SD (n = 3)
assay endpoint: IC50 (nM)
# value in nM; strip the unit string

Request: What reported IC50 corresponds to "C=C[C@@]1(C)C=C2CC[C@@H]3[C@](C)(CCC[C@@]3(C)C(=O)O)[C@H]2CC1" on UniProt Q16790?
Result: 341

Reference source for all entries: paper PMC12377326
